Here we list compounds with their recorded Ki when tested on Coagulation factor X (Homo sapiens).
Sequence (P00742 41-179 limits assumed): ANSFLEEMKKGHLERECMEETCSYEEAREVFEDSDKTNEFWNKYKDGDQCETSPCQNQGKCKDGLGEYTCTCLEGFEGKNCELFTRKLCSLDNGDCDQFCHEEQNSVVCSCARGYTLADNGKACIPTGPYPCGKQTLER
Sequence (P00742 235-488 limits assumed): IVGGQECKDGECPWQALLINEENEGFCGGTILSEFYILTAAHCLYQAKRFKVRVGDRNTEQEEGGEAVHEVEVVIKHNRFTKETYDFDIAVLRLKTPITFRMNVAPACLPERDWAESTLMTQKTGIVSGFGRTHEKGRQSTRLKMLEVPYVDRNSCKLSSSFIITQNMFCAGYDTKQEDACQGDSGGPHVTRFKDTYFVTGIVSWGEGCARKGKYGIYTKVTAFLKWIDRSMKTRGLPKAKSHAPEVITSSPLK
Could you give me the number in nM? Just the number is fine.

Some entries whose results are on file:
[[record]]
compound = "N=C(N)NCCCC(NC(=O)CN1CCN(S(=O)(=O)c2cccc3cccnc23)CC1=O)C(=O)c1nccs1 (centres undefined)"
reportedvalue = 4.4

[[record]]
compound = "N=C(N)NCCCC(NC(=O)CN1CCN(S(=O)(=O)c2ccc3ccccc3c2)CC1=O)C(=O)c1nccs1 (centres undefined)"
reportedvalue = 2.7

[[record]]
compound = "N=C(N)NCCC[C@@H](NC(=O)CN1CCN(S(=O)(=O)Cc2ccccc2)CC1=O)C(=O)c1nccs1"
reportedvalue = 1.4


Now take the following compound into account.
Which measured Ki value corresponds to Cc1c(S(=O)(=O)N2CCN(CC(=O)NC(CCCNC(=N)N)C(=O)c3nccs3)C(=O)C2)sc2ccc(Cl)cc12 (centres undefined) ? 0.17
